- Assay Name: qHTS of pediatric cancer cell lines to identify multiple opportunities for drug repurposing: Confirmatory screen for OHS-50 cells (AID 1347128);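 note: compound exposure lasted 48 h at 37 degrees C; nearly all actives have a fitted effect of over 55% in size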
- Experimental Setup: OHS-50 osteosarcoma cells viability; series mostly up to 45.9 µM
Records with an inconclusive call do not appear. The source made the active and inactive calls. Calls come from the whole dose curve; as a rule, active = well fitted cell-killing curve with a large enough effect; inconclusive = small, poorly fitted or top-dose-only effect, or effect the other way; inactive = no such curve, though single readings can be large or run the other way.
Hi! Could you answer with just one of these? class 1 (active), class 0 (inactive)

Some entries whose results are on file:
[
  {
    "Smiles Input": "COc1cccc(-c2ccc(NC(=O)C3=C(C(=O)O)CCC3)c(F)c2)c1",
    "Group": "class 0"
  },
  {
    "Smiles Input": "CC1(C)CCC(c2ccc(Cl)cc2)=C(CN2CCN(c3ccc(C(=O)NS(=O)(=O)c4ccc(N[C@H](CCN5CCOCC5)CSc5ccccc5)c(S(=O)(=O)C(F)(F)F)c4)cc3)CC2)C1",
    "Group": "class 0"
  },
  {
    "Smiles Input": "COc1cccc2c(NCc3ccccc3)nc(-n3c(N)nc4ccccc43)nc12",
    "Group": "class 1"
  },
  {
    "Smiles Input": "COc1cccc(Nc2c(C(N)=O)cnc3c(C)cc(S(=O)(=O)c4cccc(C(=O)N(C)C)c4)cc23)c1",
    "Group": "class 0"
  }
]

Request: Status in this test for Cc1ccc(C(=O)Nc2cccc(C(F)(F)F)c2)cc1-c1ccc2nc(NCCN3CCOCC3)ncc2c1 ?
Response: class 1

Request: Per the records of this test, what outcome belongs to CN1CC[C@@H](c2c(O)cc(O)c3c(=O)cc(-c4ccccc4Cl)oc23)[C@@H](O)C1 ?
Response: class 1

Request: How did this test come out for Cc1cc(Nc2cc(N3CCN(C)CC3)nc(Sc3ccc(NC(=O)C4CC4)cc3)n2)n[nH]1 ?
Response: class 1

Request: // param item: CC1(C)OC2=C(C(=O)c3ccccc3C2=O)[C@H](NCc2ccccc2)[C@H]1O ; yields the recorded call
Response: class 1
